Test: Pharmacokinetic study in male Beagle dogs (IV and PO), plasma
Type: in vivo, dog
Conditions: male, Beagle; dog plasma, IV, 3 mg/kg
assay.endpoint: half-life

smiles.repr	reported
CN(C)C(=O)Cn1ccc2nc(N[C@H]3CC[C@@H](Oc4nc(N5CCOCC5)cc5ncccc45)CC3)ncc21	13.1 h
CN1CCN(CCOc2cnc(N[C@H]3CC[C@@H](Oc4nc(N5CCOCC5)cc5ncccc45)CC3)nc2)CC1	13.3 h
O=C(COc1cnc(N[C@H]2CC[C@@H](Oc3nc(N4CCOCC4)cc4ncccc34)CC2)nc1)N1CCOCC1	3.64 h

* * *

Tested on: FaDu cell line
Assay: Prodrug Activation in Hypoxic Stirred Tumour Cell Suspensions
Conditions: 10 μM, 4 hours, 0.2% O2
assay.endpoint: Fraction of prodrug converted to active form, Hypoxic 0.2% O2

compound	reported
CC(Oc1cnc2cc(N3CCOCC3)nc(O[C@H]3CC[C@@H](Nc4ncc(CN(C)C)cn4)CC3)c2c1)c1cnc([N+](=O)[O-])n1C (stereo partly drawn)	B (B is 0.05 to 0.15)
CC(c1cnc([N+](=O)[O-])n1C)N(c1cnc2cc(N3CCOCC3)nc(O[C@H]3CC[C@@H](Nc4ncc(N5CCN(C)CC5)cn4)CC3)c2c1)S(C)(=O)=O (stereo partly drawn)	B (B is 0.05 to 0.15)

Where these numbers come from: patent US20240239790A1
